Tested on: CHLA-06 (group 2A/B) ATRT cell line
method.notes: LP-184 sensitivity in ATRT cell line CHLA-06
Assay type: cell-based
readout.label: IC50 (nM)

CC1=C(CN(O)C(N)=O)C2=C(C)C3(CC3)[C@@](C)(O)C(=O)C2=C1 [LP-184, HydroxyUreaMethyl Acylfulvene] | 37.4
